- measurement_target: Oxysterols receptor LXR-beta (Homo sapiens, UniProt P55055);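 also: HEK293 cells with Gal4-LXR fusion and GAL4-driven luciferase reporter; potency for activation of Gal4-LXR reporter so compounds are agonists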;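 also: agonist activity at LXR measured by a cell-based luminescence readout across a dose range, run as a counterscreen for daf-12 agonists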
- Sequence (P55055 whole entry, the tested form may be a part): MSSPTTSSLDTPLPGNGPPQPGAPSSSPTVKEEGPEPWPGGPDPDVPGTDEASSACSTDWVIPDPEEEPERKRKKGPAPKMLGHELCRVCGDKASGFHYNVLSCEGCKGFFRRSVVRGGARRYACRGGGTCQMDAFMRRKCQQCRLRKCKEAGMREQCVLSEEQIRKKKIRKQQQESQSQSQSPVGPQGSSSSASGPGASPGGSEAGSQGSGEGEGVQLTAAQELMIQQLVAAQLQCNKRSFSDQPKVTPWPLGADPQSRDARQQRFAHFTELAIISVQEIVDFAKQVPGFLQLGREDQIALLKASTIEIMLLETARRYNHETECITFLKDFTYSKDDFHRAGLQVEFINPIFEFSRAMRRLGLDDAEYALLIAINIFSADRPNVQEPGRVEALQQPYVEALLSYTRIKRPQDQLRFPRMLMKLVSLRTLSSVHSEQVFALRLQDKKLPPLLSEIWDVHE
- Format: functional, cell-based
Active and inactive are the calls of the source.
readout_label: EC50

- compound_structure_string: "CCCSc1nsc(NC(=O)CC)n1"
  result: "> 67.5 µM (inactive)"
- compound_structure_string: "c1ccc(Nc2nc(-c3ccccc3)ns2)cc1"
  result: "> 67.6 µM (inactive)"
- compound_structure_string: "Cc1cc(C(=O)CSc2ncccn2)c(C)n1Cc1ccco1"
  result: "> 67.5 µM (inactive)"

Field: EC50. Fill in for each record below.
1. Cc1ccc(-c2onc3ccc(C(=O)O)cc23)cc1
2. O=C(Nc1ccccc1O)c1ccc(NS(=O)(=O)c2cccc3cccnc23)cc1

a:
1: > 67.6 µM (inactive); 2: > 67.5 µM (inactive)

----------
For each of the molecules below, state its IC50.
- measurement_target: Calpain-2 catalytic subunit (Sus scrofa, UniProt P43367)
- Sequence (P43367 whole entry): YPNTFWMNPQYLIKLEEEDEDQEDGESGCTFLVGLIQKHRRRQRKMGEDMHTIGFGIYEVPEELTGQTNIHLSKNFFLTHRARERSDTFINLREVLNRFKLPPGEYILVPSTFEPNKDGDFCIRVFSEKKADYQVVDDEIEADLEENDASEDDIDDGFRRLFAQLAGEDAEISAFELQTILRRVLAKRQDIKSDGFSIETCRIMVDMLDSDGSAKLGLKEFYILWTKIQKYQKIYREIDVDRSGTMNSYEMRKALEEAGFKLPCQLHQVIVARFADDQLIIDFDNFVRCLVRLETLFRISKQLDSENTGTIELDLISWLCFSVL
- procedure_summary: m-calpain protease blockers, concentration series – biochemical, fluorogenic peptide substrate, dose response (AID 1420)
- Format: functional

As a guide, the following entries are already answered.
- compound_structure_string: "COC(=O)c1c(C)oc(C)c1S(=O)(=O)Nc1ccc(C(C)C)cc1"
  result: "11.4 µM (not active)"
- compound_structure_string: "O=C(NN1C(=O)/C(=C/C=C/c2ccco2)SC1=S)c1ccccc1O"
  result: "47.6 µM (not active)"
- compound_structure_string: "Fc1ccc(CNc2nc(-c3ccccc3)nc3ccccc23)cc1"
  result: "6.57 µM (not active)"
- compound_structure_string: "CCOc1cc(C(=O)N/N=C\\c2cn(CC)nc2C)cc(OCC)c1OCC"
  result: "> 50 µM (not active)"

// below: IC50 requested for another molecule
q: What does the record list as IC50 for CC(C)C[C@H](NC(=O)c1[nH]cnc1C(=O)N[C@@H](CCCCNC(=O)OC(C)(C)C)C(=O)OC(C)(C)C)C(=O)OC(C)(C)C ?
a: 3.89 µM (not active)

----------
For each of the compounds below, state its EC50.
- measurement_target: Protein RecA (Mycobacterium tuberculosis)
- procedure_summary: Fluorescence Cell-Free Homogeneous Dose Retest to Identify Inhibitors of RecA-Intein Splicing Activity. [Related pubchem assays (depositor defined):AID2097, AID2223, AID489010, AID492950]
- Type: functional
The source made the active and inactive calls.

As a guide, the following entries are already answered.
- compound: "COc1cccc(/N=C2\\C(Cl)=C(O)OC2OC(=O)c2ccco2)c1 (stereo unspecified)"
  EC50: "14.6 µM (active)"
- compound: "CCOC(=O)c1c(CC(C)C)csc1NC(=O)CCl"
  EC50: "2.39 µM (active)"
- compound: "CCN(CC)CCN1C(=O)C(O)=C(C(C)=O)C1c1ccccc1[N+](=O)[O-] (stereo unspecified)"
  EC50: "3.71 µM (active)"

Field: EC50. Fill in for each record below.
1. CN(C)CCSc1n[nH]c2nc3ccccc3c-2n1
2. O=C1C=C(Nc2ccccc2C(=O)O)c2ccccc2C1=O
3. CC(C)(C)c1cc[n+](C2=C([N-]S(=O)(=O)c3ccccc3)C(=O)c3ccccc3C2=O)cc1
4. CCOC(=O)c1cc(C)sc1NC(=O)CSC1=NCCS1
5. O=C1c2ccccc2-n2c1nc1ccccc1c2=O
6. O=c1c(Cl)nc2cc(Cl)ccc2n1CCNc1ncc(C(F)(F)F)cc1Cl
7. CCOC(=O)c1cnc(-n2[nH]c(C)c(Cc3ccccc3)c2=O)[nH]c1=O
8. O=C1C(=O)c2ccccc2C(O)=C1CCCCl

a:
1: 2.79 µM (active); 2: 2.34 µM (active); 3: 9.39 µM (active); 4: 21.4 µM (active); 5: 0.643 µM (active); 6: 0.951 µM (active); 7: 5.99 µM (active); 8: 6.39 µM (active)
